Numbers sourced from patent US7893067B2.

- target_system: human recombinant cathepsin K (Homo sapiens)
- Construct: made in house; host or cells: not fixed: E coli, Pichia or Baculovirus systems named as options
- Sequence (P43235 115-329): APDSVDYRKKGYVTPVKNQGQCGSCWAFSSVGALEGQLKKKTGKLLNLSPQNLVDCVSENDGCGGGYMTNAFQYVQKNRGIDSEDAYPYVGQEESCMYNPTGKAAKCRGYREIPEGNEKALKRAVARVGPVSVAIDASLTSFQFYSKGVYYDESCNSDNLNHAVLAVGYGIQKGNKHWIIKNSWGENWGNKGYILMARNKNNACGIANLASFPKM
- assay_comment: Determination of cathepsin K proteolytic catalytic activity (Ki)
- Type: biochemical
- test_conditions: representative values from specific batches of compound/enzyme/assay occasion
pKi: −log10 of the molar value.
endpoint_name: pKi

- chemical_string: "CC(C)C[C@H](NC(=O)c1ccc(-c2nc(N3CCN(C)CC3)sc2F)cc1)C(=O)N1C[C@@H](Cl)[C@H]2OCC(=O)[C@H]21"
  target_system: "human recombinant cathepsin K (Homo sapiens)"
  result: 8.74
- chemical_string: "CC(C)C[C@H](NC(=O)c1ccc(-c2csc(N3CCN(C)CC3)n2)c(F)c1)C(=O)N1C[C@@H](Cl)[C@H]2OCC(=O)[C@H]21"
  target_system: "human recombinant cathepsin K (Homo sapiens)"
  result: 8.47
- chemical_string: "CC(C)C[C@H](NC(=O)c1ccc(-c2csc(N3CCN(C)CC3)n2)cc1)C(=O)N1C[C@@H](Cl)[C@H]2OCC(=O)[C@H]21"
  target_system: "human recombinant cathepsin K (Homo sapiens)"
  result: 8.82
- chemical_string: "Cc1sc(N2CCN(C)CC2)nc1-c1ccc(C(=O)N[C@@H](CC(C)C)C(=O)N2C[C@@H](Cl)[C@H]3OCC(=O)[C@H]32)cc1"
  target_system: "human recombinant cathepsin K (Homo sapiens)"
  result: 8.80
- chemical_string: "CN1CCN(c2nc(-c3ccc(C(=O)N[C@@H](CC(C)(C)F)C(=O)N4C[C@@H](Cl)[C@H]5OCC(=O)[C@H]54)cc3)cs2)CC1"
  target_system: "human recombinant cathepsin K (Homo sapiens)"
  result: 8.48
- chemical_string: "CN1CCN(c2nc(-c3ccc(C(=O)N[C@H](C(=O)N4C[C@@H](Cl)[C@H]5OCC(=O)[C@H]54)C4CCCCC4)cc3)cs2)CC1"
  target_system: "human recombinant cathepsin K (Homo sapiens)"
  result: 8.38
